Test system: Trypanosoma brucei rhodesiense
Assay: In vitro antiprotozoal activity against T. b. r.
Assay type: cell-based
Conditions: Trypanosoma brucei, RHODESIENSE
pIC50: −log10 of the molar value.
QUANTITY: pIC50

1) Cl.N=C(N)c1ccc(-c2ccc(-c3ccc(-c4ccc(C(=N)N)cc4)o3)o2)cc1 [Compound 17, hydrochloride salt] = 6.90
2) CONC(=N)c1ccc(-c2ccc(-c3ccc(-c4ccc(C(=N)NOC)cc4)o3)o2)cc1 [Compound 19] = 4.44
3) N/C(=N\O)c1ccc(-c2ccc(-c3ccc(-c4ccc(/C(N)=N\O)cc4)o3)o2)cc1 [Compound 16] = 5.06

* * *

System: polyA.polyT
Test: DNA binding study: increase in thermal melting (ΔTm) of polyA.polyT
Conditions: increase in thermal melting of polyA.polyT in the presence of compound
QUANTITY: Δ Tm (°C)

1) N=C(N)c1ccc2nc(-c3ccc(-c4ccc(C(=N)N)o4)o3)[nH]c2c1 = 23.2
2) N=C(N)c1ccc(-c2ccc(-c3ccc(C(=N)N)o3)o2)cc1 = 10.8
3) CC(=O)O.N=C(N)c1ccc(-c2ccc(-c3ccc(C(=N)N)o3)o2)nc1 = 7.1
4) Cl.N=C(N)c1ccc(-c2ccc(-c3ccc(-c4ccc(C(=N)N)cc4)o3)o2)cc1 = 23.6
